- ASSAY TEXT: Metabolic stability in human liver microsomes assessed as half life at 1 uM incubated upto 60 min in presence of NADPH by LC-MS/MS analysis
- Format: ADME, Microsome
VALUE TYPE: half-life at 1 µM

Query: Which half-life at 1 µM value is on record for CCCOc1c(OC)ccc2cc3[n+](cc12)CCc1cc(OC)c(OC)cc1-3.[Br-] ?
Response: > 2.42 h

====

- ASSAY TEXT: Binding affinity to sensorchip-immobilized PI3K (unknown origin) by surface plasmon resonance analysis
- Design: species or system Homo sapiens
VALUE TYPE: Kd (µM)
Answers are plain numbers, in µM.

Query: Which Kd value is on record for CCCOc1c(OC)ccc2cc3[n+](cc12)CCc1cc(OC)c(OC)cc1-3.[Br-] ?
Response: 25.5

====

- ASSAY TEXT: Metabolic stability in CD-1 mouse liver microsomes assessed as compound remaining at 1 uM measured after 60 mins in presence of NADPH by LC-MS/MS analysis
- Type: ADME, Microsome
- MEASUREMENT SETUP: read-out: Stability
VALUE TYPE: remaining at 1 h, 1 µM (%)
Numbers only, in %.

Query: Which remaining at 1 h, 1 µM value is on record for CCCOc1c(OC)ccc2cc3[n+](cc12)CCc1cc(OC)c(OC)cc1-3.[Br-] ?
Response: 39

====

- ASSAY TEXT: Metabolic stability in CD-1 mouse liver microsomes assessed as half life at 1 uM incubated upto 60 min in presence of NADPH by LC-MS/MS analysis
- Type: ADME, Microsome
VALUE TYPE: half-life at 1 µM (min)
Numbers only, in min.

Query: Which half-life at 1 µM value is on record for CCCOc1c(OC)ccc2cc3[n+](cc12)CCc1cc(OC)c(OC)cc1-3.[Br-] ?
Response: 44.7

====

- ASSAY TEXT: Metabolic stability in Sprague-Dawley rat liver microsomes assessed as half life at 1 uM incubated upto 60 min in presence of NADPH by LC-MS/MS analysis
- Format: ADME, Microsome
VALUE TYPE: half-life at 1 µM

Query: Which half-life at 1 µM value is on record for CCCOc1c(OC)ccc2cc3[n+](cc12)CCc1cc(OC)c(OC)cc1-3.[Br-] ?
Response: > 2.42 h

====

- ASSAY TEXT: Acute toxicity in po dosed Kunming mouse assessed as lethal dose measured after 14 days
- Assay type: organism-based
- MEASUREMENT SETUP: in vivo, time 14 day
VALUE TYPE: LD50 at 336 h (mg/kg)
Give bare numbers, in mg/kg.

Query: Which LD50 at 336 h value is on record for CCCOc1c(OC)ccc2cc3[n+](cc12)CCc1cc(OC)c(OC)cc1-3.[Br-] ?
Response: 1000

====

- ASSAY TEXT: Metabolic stability in human liver microsomes assessed as liver intrinsic clearance at 1 uM incubated upto 60 min in presence of NADPH by LC-MS/MS analysis
- Type: ADME, Microsome
- MEASUREMENT SETUP: 1 h
VALUE TYPE: CLH

Query: Which CLH value is on record for CCCOc1c(OC)ccc2cc3[n+](cc12)CCc1cc(OC)c(OC)cc1-3.[Br-] ?
Response: < 8.6 mL/min/kg

====

- ASSAY TEXT: Cytotoxicity against human HUVEC cells assessed as cell vaibility at 100 uM by MTS assay
- Type: toxicity, cell-based
- MEASUREMENT SETUP: read-out: Activity
VALUE TYPE: viability at 100 µM (%)
Give bare numbers, in %.

# example entries with known answers
COc1cc2c(cc1OC)-c1cc3ccc(OC)c(OCC4CC4)c3c[n+]1CC2.[Br-]
90
COc1cccc(COc2c(OC)ccc3cc4[n+](cc23)CCc2cc(OC)c(OC)cc2-4)c1.[Br-]
90

Query: Which viability at 100 µM value is on record for CCCOc1c(OC)ccc2cc3[n+](cc12)CCc1cc(OC)c(OC)cc1-3.[Br-] ?
Response: 90
